Numbers sourced from ChEMBL document CHEMBL1157539.

# Tested on: HepG2
# Test name: GSK_TCMDC: Percent inhibition of human HepG2 cell line. Test compounds present at 10uM.
# Assay type: functional
Entry flag: met if Inhibition reaches 2%; not met if it does not.

Below, 5 molecules whose answers are already recorded.
CC1CN(Cc2ccc(-c3cccc(-c4nc5cc(F)ccc5[nH]4)c3)cc2)CC(C)O1.O=C(O)C(F)(F)F (centres undefined) | met
Cn1cncc1C(=O)Nc1ccc(-c2ccc(-c3nc4cc(C(F)(F)F)ccc4[nH]3)cc2)cc1 | met
CC(C)c1nc(N2CCN(C(=S)NCc3ccccc3)CC2)c(C#N)c2c1COC(C)(C)C2 | not met
COc1ccccc1NS(=O)(=O)c1cc(C(=O)Nc2ccc(N3CCOCC3)c(S(=O)(=O)Nc3ccccc3Cl)c2)ccc1Cl | not met
CCOc1cc(C(=O)N[C@@H](Cc2ccccc2)[C@H](O)CNCc2cc(OC)cc(OC)c2)cc(N2CCCS2(=O)=O)c1.Cl | not met

Challenge: Would you say O=C(Nc1ccccc1)N(Cc1cccc(-c2ccc(CNCc3ccc4c(c3)OCO4)cc2)c1)C1CCN(Cc2ccccc2)CC1.O=C(O)C(F)(F)F shows Inhibition at minimum 2%?
Response given: met

Challenge: Would you say COc1ccccc1CNC(=O)c1nn(-c2ccc(Cl)cc2)c(=O)c2ccccc12 shows Inhibition at minimum 2%?
Response given: not met

Challenge: Would you say O=C(NCCCCN1CCC(c2ccc3c(c2OCCN2CCCC2=O)CCCC3)CC1)c1ccc(-c2ccc(C(F)(F)F)cc2)cc1 shows Inhibition at minimum 2%?
Response given: met
